Assay: Toxicity against Balanus amphitrite stage 2 nauplii after 24 hrs
Type: organism-based
Conditions: amphibalanus amphitrite, in vivo
recorded.metric: LC50 at 24 h

The examples below pair each entry with its known result.
COc1cc(C)c(O)c(C/C=C(\C)CC(O)/C=C(\C)CCCC(C)C(=O)C(O)C=C(C)C)c1 (stereo unspecified): 10 µg/mL
COc1cc(C)c(O)c(C/C=C(\C)CC(=O)/C=C(\C)CCCC(C)C(O)C(=O)C=C(C)C)c1 (stereo in doubt; 8): > 100 µg/mL
COc1cc(C)c(O)c(C/C=C(\C)CC(=O)/C=C(\C)CCCC(C)C(=O)C(O)C=C(C)C)c1 (stereo in doubt; 3): > 100 µg/mL
COc1cc(C)c(O)c(C/C=C(\C)CC(=O)/C=C(/C)CCCC(C)C(=O)C(O)C=C(C)C)c1 (stereo unspecified): 5 µg/mL

Lab note: COc1cc(C)c(O)c(C/C=C(\C)CC(=O)/C=C(/C)CCCC(C)C(O)C(=O)C=C(C)C)c1 (stereo unspecified) gave LC50 at 24 h of > 100 µg/mL

Lab note: COc1cc(C)c2c(c1)C=CC(C)(CC(=O)/C=C(\C)CCCC(C)[C@@H](O)C(=O)C=C(C)C)O2 (stereo partly specified) gave LC50 at 24 h of > 100 µg/mL

###

System: Marinobacterium stanieri
Assay: Antibacterial activity against Marinobacterium stanieri ATCC 27130 after 24 hrs by microtiter broth dilution method
Assay type: functional
Conditions: Marinobacterium stanieri, ATCC 27130, 24 h; read-out: MIC
# reported MIC; entries follow

The examples below pair each entry with its known result.
COc1cc(C)c(O)c(C/C=C(\C)CC(O)/C=C(\C)CCCC(C)C(=O)C(O)C=C(C)C)c1 (centres undefined): 1 µg/mL
COc1cc(C)c(O)c(C/C=C(\C)CC(=O)/C=C(/C)CCCC(C)C(O)C(=O)C=C(C)C)c1 (centres undefined): > 100 µg/mL
COc1cc(C)c(O)c(C/C=C(\C)CC(=O)/C=C(/C)CCCC(C)C(=O)C(O)C=C(C)C)c1 (centres undefined): 1 µg/mL

Turning now to a further record.
Lab note: COc1cc(C)c2c(c1)C=CC(C)(CC(=O)/C=C(\C)CCCC(C)[C@@H](O)C(=O)C=C(C)C)O2 (some centres undefined) gave MIC of > 100 µg/mL

###

Tested on: Marinobacterium stanieri
Experiment: Antibacterial activity against Marinobacterium stanieri ATCC 27130 after 24 hrs by microtiter broth dilution method
Format: functional
recorded.metric: MIC (µg/mL)
Respond with the bare value in µg/mL.

The examples below pair each entry with its known result.
COc1cc(C)c(O)c(C/C=C(\C)CC(=O)/C=C(\C)CCCC(C)C(O)C(=O)C=C(C)C)c1 (stereo in doubt; 9): 1
COc1cc(C)c(O)c(C/C=C(\C)CC(=O)/C=C(\C)CCCC(C)C(=O)C(O)C=C(C)C)c1 (stereo in doubt; 3): 5

Lab note: COc1cc(C)c(O)c(C/C=C(\C)CC(=O)/C=C(\C)CCCC(C)C(O)C(=O)C=C(C)C)c1 (stereo in doubt; 8) gave MIC of 10
